Assay: Antiproliferative activity against P-gp170/MDR expressing human KBVIN cells after 72 hrs by methylene blue dye assay
Assay type: functional, cell-based
Let's look at some molecules and their measured IC50.
API: value field is a number in nM; no unit string.

Example entries and their recorded answers appear below.
COc1cc(C(=O)c2ccc3ncccc3c2)cc(OC)c1OC = 21.5
COc1cc(C(=O)c2cccc3ncccc23)cc(OC)c1OC = 2300
COc1cc(C(=O)c2ccnc3ccccc23)cc(OC)c1OC = 2200
COc1cc(C(=O)c2cnc3ccccc3c2)cc(OC)c1OC = 1100
COc1cc(C(=O)c2ccnc3c(OC)cccc23)cc(OC)c1OC = 165
COc1ccc2cc(C(=O)c3cc(OC)c(OC)c(OC)c3)ccc2n1 = 202
COc1ccc(/C=C\c2cc(OC)c(OC)c(OC)c2)cc1O [COMBRETASTATIN A4] = 1.9
COc1ccc2nc(C(=O)c3cc(OC)c(OC)c(OC)c3)ccc2c1 = 21.5

Input COc1cc(C(=O)c2ccc3c(ccc[n+]3[O-])c2)cc(OC)c1OC . Output IC50: 764

The molecule listed as COc1cc(C(=O)c2ccc3ccccc3n2)cc(OC)c1OC shows IC50 equal to 117

The molecule identified as COc1cc(C(=O)c2ccc3c(N)c(OC)ccc3n2)cc(OC)c1OC registered its IC50 at 0.2

Recorded result, COc1cc(C(=O)c2cccc3cccnc23)cc(OC)c1OC , IC50: 6000

---

Test system: HT-29
Test: Antiproliferative activity against human HT-29 cells after 72 hrs by methylene blue dye assay
Assay type: functional, cell-based
Conditions: HT-29, 72 h
pIC50: −log10 of the molar value.
Returns one of True or False; True when pIC50 is >= 7.

Past entries and their recorded results:
COc1ccc(/C=C\c2cc(OC)c(OC)c(OC)c2)cc1O = False
COc1cc(C(=O)c2ccc3c(N)c(OC)ccc3n2)cc(OC)c1OC = True
COc1cc(C(=O)c2cnc3ccccc3c2)cc(OC)c1OC = False

Could you now look at the following compound, please?
Req: Is pIC50 for COc1cc(C(=O)c2ccc3c(ccc[n+]3[O-])c2)cc(OC)c1OC at or above 7?
Resp: False

---

# Lookup of reported Activity keyed by entry
Assay: Displacement of [3H]colchicine from tubulin by at 1 uM scintillation proximity assay
Answer with a number only, understood to be in %.

Reference set, count: 3
COc1cc(C(=O)c2ccc3c(N)c(OC)ccc3n2)cc(OC)c1OC = 90
COc1ccc2nc(C(=O)c3cc(OC)c(OC)c(OC)c3)ccc2c1 = 40
COc1cc(C(=O)c2ccc3ncccc3c2)cc(OC)c1OC = 51

Alright, here's another compound for you.
# Activity of COc1ccc(/C=C\c2cc(OC)c(OC)c(OC)c2)cc1O [COMBRETASTATIN A4] = 87

---

Assay: Inhibition of tubulin polymerization by turbidimetric assay
test-readout: pIC50
Answer as the number alone; pIC50 is minus log10 of concentration in mol/L.

The recorded pIC50 for COc1ccc(/C=C\c2cc(OC)c(OC)c(OC)c2)cc1O is 5.68

Consider COc1ccc2nc(C(=O)c3cc(OC)c(OC)c(OC)c3)ccc2c1 . Its measured pIC50 is 5.46

pIC50 reported for this molecule COc1cc(C(=O)c2ccc3ncccc3c2)cc(OC)c1OC : 5.54

So, COc1cc(C(=O)c2ccc3c(N)c(OC)ccc3n2)cc(OC)c1OC ? Its pIC50 was 5.80
